Exercise: state measured pIC50 for each of the compounds provided.
# measured_target: CDK6/CycD3 (Homo sapiens (Human), UniProt Q00534)
# Sequence (Q00534 whole entry): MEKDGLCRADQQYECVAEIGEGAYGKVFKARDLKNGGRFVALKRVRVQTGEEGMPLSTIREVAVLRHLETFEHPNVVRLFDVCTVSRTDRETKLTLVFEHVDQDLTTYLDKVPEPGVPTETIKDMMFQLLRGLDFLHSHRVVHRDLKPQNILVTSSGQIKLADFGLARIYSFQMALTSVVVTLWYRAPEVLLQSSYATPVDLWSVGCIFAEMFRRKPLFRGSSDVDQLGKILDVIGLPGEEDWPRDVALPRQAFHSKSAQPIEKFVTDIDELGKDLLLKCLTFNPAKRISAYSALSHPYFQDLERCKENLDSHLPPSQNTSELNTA
# Sequence (P30281 whole entry partner): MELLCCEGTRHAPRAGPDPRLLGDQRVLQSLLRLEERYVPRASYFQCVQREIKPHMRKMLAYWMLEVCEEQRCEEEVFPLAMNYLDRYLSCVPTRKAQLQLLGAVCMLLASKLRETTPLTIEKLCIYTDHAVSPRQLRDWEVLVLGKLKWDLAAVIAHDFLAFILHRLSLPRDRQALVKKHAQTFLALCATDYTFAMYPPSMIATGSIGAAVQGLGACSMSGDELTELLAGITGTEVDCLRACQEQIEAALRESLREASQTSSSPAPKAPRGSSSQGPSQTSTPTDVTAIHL
# experiment_summary: CDK6/CycD3 kinase assay
pIC50: −log10 of the molar value.

Parameter requested: pIC50. Apply to each item below.
1. CC(C)C1CC(=O)NN1c1ccnc(Nc2ccc(N3CCN(C)CC3)cn2)n1 (stereo not drawn)
2. CN1CCN(c2ccc(Nc3nccc(N4C(c5ccsc5)=NCC45CCCCC5)n3)nc2)CC1
3. CN1CCN(c2ccc(Nc3nccc(N4C(c5ccoc5)=NCC45CCCCC5)n3)nc2)CC1

Reply |
["< 4.00", "< 4.00", "< 4.00"]
